Experimental Protocol: Tanguay_ZF_120hpf_ActivityScore_legacy: (Legacy) Oregon State University Tanguay Lab 120 Hour Post-fertilization zebrafish Assay Score for Activity (AID 2283742)
Active and inactive are the calls of the source. How the source made its calls: active means hit-call score of the fitted dose curve at least 0.9, where 1 is the maximum; inconclusive means response in the unintended direction; inactive means score below 0.9.
// classify into active, inactive

Reference set, count: 3
>  <Compound>
CCc1nc(N)nc(N)c1-c1ccc(Cl)cc1

>  <Assigned Class>
inactive

$$$$
>  <Compound>
CCCCCCC(C=O)=Cc1ccccc1

>  <Assigned Class>
inactive

$$$$
>  <Compound>
O=C1O[C@H]([C@H](O)CO)C(O)=C1O

>  <Assigned Class>
inactive

$$$$

Query :: Status in this test for `NC=O` ?
Result :: inactive

Query :: Status in this test for `CCCCCCCCCCCCCCOS(=O)(=O)O` ?
Result :: active

Query :: Status in this test for `C=CCCCCCCCCCCCC` ?
Result :: inactive

Query :: Status in this test for `CC1=C(C)S(=O)(=O)CCS1(=O)=O` ?
Result :: inactive

Query :: Status in this test for `COC(=O)CCCC(=O)OC` ?
Result :: inactive

Query :: Status in this test for CC(C)NCC(O)c1ccc(O)c(O)c1 (configuration not stated) ?
Result :: inactive

Query :: Status in this test for `OCC(CO)n1cnc(-c2ccc(F)cc2)c1-c1ccnc(Oc2ccccc2)n1` ?
Result :: inactive

Query :: Status in this test for `CCOCCOCCO` ?
Result :: inactive

Query :: Status in this test for Cc1c(C)c2c(c(C)c1O)CCC(C)(COc1ccc(CC3SC(=O)NC3=O)cc1)O2 (configuration not stated) ?
Result :: inactive

Query :: Status in this test for `Cc1cc(Cc2ccc(N)c(C)c2)ccc1N` ?
Result :: inactive

Query :: Status in this test for `Cc1occc(=O)c1O` ?
Result :: inactive

Query :: Status in this test for `C=CCc1ccc(OC)c(OC)c1` ?
Result :: inactive

Query :: Status in this test for `N[C@@H](Cc1c[nH]c2ccccc12)C(=O)O` ?
Result :: inactive

Query :: Status in this test for `CCCCCCCCCC[N+](C)(C)[O-]` ?
Result :: inactive

Query :: Status in this test for CCC(C)N(C)C(=O)c1cc2ccccc2c(-c2ccccc2Cl)n1 (configuration not stated) ?
Result :: inactive

Query :: Status in this test for `CO[C@@H]1COCC[C@@H]1N[C@@H]1CC[C@@](C(=O)N2CCc3ncc(C(F)(F)F)cc3C2)(C(C)C)C1` ?
Result :: inactive

* * *

Read-out: E-selectin (Homo sapiens)
Experimental Protocol: BSK_LPS_Eselectin: BioMAP Diversity Plus: LPS Assay for Eselectin Biomarker Activity (AID 2283077)
Setup Conditions: primary human HUVEC with PBMC; actives raise or lower the signal
Activity calls are given as the source filed them. The calls were made as follows: active = hit-call score of the fitted dose curve at least 0.9, where 1 is the maximum; inactive = score below 0.9.
// classify into Yes = active, No = inactive

Reference set, count: 4
>  <Compound>
COc1ccc(C(=O)Nc2nc3ccccc3c(NCc3ccccc3)c2C#N)cc1

>  <Assigned Class>
No

$$$$
>  <Compound>
CCCCC(CC)COC(=O)CCCCCCCC(=O)OCC(CC)CCCC (centres undefined)

>  <Assigned Class>
No

$$$$
>  <Compound>
c1ccc2occc2c1

>  <Assigned Class>
No

$$$$
>  <Compound>
O=C(N[C@@H](c1ccccc1)[C@@H]1CCCCN1)c1cccc(C(F)(F)F)c1Cl

>  <Assigned Class>
Yes

$$$$

Could you now consider this next compound?
Query :: Status in this test for `O=C1NC(=O)C(c2ccccc2)(c2ccccc2)N1` ?
Result :: No

* * *

Test Target: Hypoxia-inducible factor 1-alpha (Homo sapiens)
Experimental Protocol: ATG_HIF1a_CIS: Attagene CIS-FACTORIAL HepG2 Assay for human Hypoxia Inducible Factor 1 (HIF1A) (AID 2282951)
Setup Conditions: HepG2 Attagene cis-factorial HIF1a reporter transcription; actives raise or lower the signal
Activity calls are given as the source filed them. How the source made its calls: active means hit-call score of the fitted dose curve at least 0.9, where 1 is the maximum; inactive means score below 0.9.
// classify into T = active, F = inactive

Reference set, count: 3
>  <Compound>
N[C@@H](Cc1c[nH]c2ccccc12)C(=O)O

>  <Assigned Class>
T

$$$$
>  <Compound>
CCCCOC(=O)CCCCC(=O)OCCCC

>  <Assigned Class>
F

$$$$
>  <Compound>
COC(=O)CCC(=O)OC

>  <Assigned Class>
F

$$$$

Query :: Status in this test for CC(=O)OC1CC(C)OC(C)O1 (centres undefined) ?
Result :: F

Query :: Status in this test for `CC(=O)OCC(COC(C)=O)OC(C)=O` ?
Result :: F

Query :: Status in this test for `Cc1occc(=O)c1O` ?
Result :: F

Query :: Status in this test for CCCCCCC(CCCCCCCCCCC(=O)OCC(COC(C)=O)OC(C)=O)OC(C)=O (centres undefined) ?
Result :: F

Query :: Status in this test for `CSc1ccc(Oc2ccc(S(N)(=O)=O)cc2CN(C)C)cc1C` ?
Result :: F

Query :: Status in this test for `CO[C@@H]1COCC[C@@H]1N[C@@H]1CC[C@@](C(=O)N2CCc3ncc(C(F)(F)F)cc3C2)(C(C)C)C1` ?
Result :: F

Query :: Status in this test for `O=C(N[C@@H](c1ccccc1)[C@@H]1CCCCN1)c1cccc(C(F)(F)F)c1Cl` ?
Result :: T

Query :: Status in this test for `CN(C)C(=O)NC1(c2ccccc2)CCN(CCC[C@]2(c3ccc(Cl)c(Cl)c3)CCCN(C(=O)c3ccccc3)C2)CC1` ?
Result :: F

Query :: Status in this test for CCCCC(CC)COP(=O)(OCC(CC)CCCC)OCC(CC)CCCC (centres undefined) ?
Result :: F

Query :: Status in this test for `C/C=C/C=C/C(=O)O` ?
Result :: F

Query :: Status in this test for `CCc1cc(C2=C(C(=O)O)N(c3ccccc3C(F)(F)F)S(=O)(=O)c3ccccc32)cc2c1OCO2` ?
Result :: F

Query :: Status in this test for `CCCC[C@H]1CN(CC2CCOCC2)C(=O)OC12CCN(C1(C)CCN(C(=O)c3c(C)ncnc3C)CC1)CC2` ?
Result :: F

Query :: Status in this test for CC(COCC(C)OC(=O)c1ccccc1)OC(=O)c1ccccc1 (centres undefined) ?
Result :: F

Query :: Status in this test for `CCCCCCCC(=O)OC` ?
Result :: T

Query :: Status in this test for `COC(=O)CCCC(=O)OC` ?
Result :: F

Query :: Status in this test for `CC(=O)O` ?
Result :: F

Query :: Status in this test for `COc1ccc(C(=O)Nc2nc3ccccc3c(NCc3ccccc3)c2C#N)cc1` ?
Result :: T

Query :: Status in this test for `O=C(O)c1[nH]n(-c2ccc(S(=O)(=O)O)cc2)c(=O)c1N=Nc1ccc(S(=O)(=O)O)cc1` ?
Result :: F

* * *

Read-out: Transforming Growth Factor (TGFA), TGFA (gene 7039)
Experimental Protocol: LTEA_HepaRG_TGFA: Life Technologies and Expression Analysis (LTEA) Assay for Transforming Growth Factor (TGFA) using HepaRG (AID 2283532)
Setup Conditions: mRNA level, 48 h; actives raise or lower the signal
Activity calls are given as the source filed them. How the source made its calls: active means hit-call score of the fitted dose curve at least 0.9, where 1 is the maximum; inactive means score below 0.9.
// classify into active, inactive

>  <Compound>
CCN(CC)CCOc1ccc(C(=C(Cl)c2ccccc2)c2ccccc2)cc1

>  <Assigned Class>
active

$$$$
>  <Compound>
CCc1cc(C2=C(C(=O)O)N(c3ccccc3C(F)(F)F)S(=O)(=O)c3ccccc32)cc2c1OCO2

>  <Assigned Class>
active

$$$$
>  <Compound>
Cc1ccc(C(C)(C)C)c(O)c1

>  <Assigned Class>
inactive

$$$$
>  <Compound>
CC(C)COC(=O)CCCCC(=O)OCC(C)C

>  <Assigned Class>
inactive

$$$$
>  <Compound>
Oc1ccc(O)cc1

>  <Assigned Class>
inactive

$$$$
>  <Compound>
NCCOCCOCCN

>  <Assigned Class>
inactive

$$$$
>  <Compound>
Cc1ccc(-c2cc(C(F)(F)F)nn2-c2ccc(S(N)(=O)=O)cc2)cc1

>  <Assigned Class>
active

$$$$
>  <Compound>
Cn1cnc2c1c(=O)[nH]c(=O)n2C

>  <Assigned Class>
inactive

$$$$

Query :: Status in this test for `COC(=O)[C@H]1[C@H]2C[C@@H]3c4[nH]c5cc(OC)ccc5c4CCN3C[C@H]2C[C@@H](OC(=O)c2cc(OC)c(OC)c(OC)c2)[C@@H]1OC` ?
Result :: inactive

Query :: Status in this test for `CC(C)(C)c1ccccc1` ?
Result :: inactive

Query :: Status in this test for `C=CCCCCCCCCCCCC` ?
Result :: inactive

* * *

Experimental Protocol: BSK_SAg_Proliferation: Cell Proliferation Assessment in the BioMAP Diversity Plus: SAg Assay (AID 2283095);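 further: relative cell number as total protein by SRB absorbance in sub-confluent culture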
Setup Conditions: primary human HUVEC with PBMC
Calls of active or inactive are those of the source. Rule for the calls: active = hit-call score of the fitted dose curve at least 0.9, where 1 is the maximum; inactive = score below 0.9.
// classify into active, inactive

Reference set, count: 5
>  <Compound>
O=C1NC(=O)C(c2ccccc2)(c2ccccc2)N1

>  <Assigned Class>
inactive

$$$$
>  <Compound>
CC(C)OC(=O)C(C)(C)Oc1ccc(C(=O)c2ccc(Cl)cc2)cc1

>  <Assigned Class>
active

$$$$
>  <Compound>
C=CCc1ccc(OC)c(OC)c1

>  <Assigned Class>
inactive

$$$$
>  <Compound>
Nc1nc(Cl)nc2c1ncn2[C@H]1C[C@H](O)[C@@H](CO)O1

>  <Assigned Class>
active

$$$$
>  <Compound>
C/C=C/c1ccc(OC)cc1

>  <Assigned Class>
inactive

$$$$

Query :: Status in this test for `CN(C)C(=O)NC1(c2ccccc2)CCN(CC[C@@]2(c3ccc(F)c(F)c3)CN(C(=O)c3ccccc3)CCO2)CC1` ?
Result :: active

Query :: Status in this test for `CS(=O)(=O)c1ccc([C@@H](C[C@H]2CCC(=O)C2)C(=O)Nc2cnccn2)cc1Cl` ?
Result :: inactive

Query :: Status in this test for `Cc1cc(SC2=C(O)C[C@@](CCc3ccc(N)cc3)(C(C)C)OC2=O)c(C(C)(C)C)cc1CO` ?
Result :: inactive

Query :: Status in this test for CC(COCC(C)OC(=O)c1ccccc1)OC(=O)c1ccccc1 (stereo unspecified) ?
Result :: inactive

Query :: Status in this test for `O=C(O)CN(CC(=O)O)CC(=O)O` ?
Result :: active

Query :: Status in this test for `CC(C)(O)c1ccc(CNC(=O)c2cccnc2Oc2ccc(F)cc2)cc1` ?
Result :: inactive
